Field: gcPBM binding intensity (ln). Provide a value for each of the sequences that follow.
- Test system: PfAP2-G AP2 domain (GST-tagged)
- procedure.text: gcPBM binding intensity (ln(normalized median fluorescence intensity)); higher = stronger DNA binding
In all, about 25,000 sequences were measured (“ln(normalized median fluorescence intensity)”: median about 10, highest 2% from about 12 on). Many of the other results were omitted from the sample, so the highest values are more common in it than they were.
Note: the reply should be a number with no unit written.

Kindly note the recorded gcPBM binding intensity (ln) for AATAAATTTAGACACACACACACATATAAATAAATA [CACACA_site6531] , which is 10.1

Kindly note the recorded gcPBM binding intensity (ln) for AAAAAAAAATCATATTGTACGTAAAAAAAAAAAAAA [XGTACX_site476] , which is 11.4

Kindly note the recorded gcPBM binding intensity (ln) for TTCCTTAATCAATATTGTACTTTTTATAAATTTAGT [XGTACX_site3678] , which is 11.4

Kindly note the recorded gcPBM binding intensity (ln) for TTCCTTTGTCCTAACTGTACTCAAATTTATTAGTGG [XGTACX_site226] , which is 11.8

Kindly note the recorded gcPBM binding intensity (ln) for ACACATACAACGTGGTGTACAAATAATTATAATCAA [XGTACX_site2287] , which is 11.1

Kindly note the recorded gcPBM binding intensity (ln) for TTACATGTAAAAGGTACACACATTAGATATACAAAT [CACACA_site6651] , which is 11.3

Kindly note the recorded gcPBM binding intensity (ln) for ATTTTTTTTTTTTATAGTGGATCCACATTTGCCATT [CACACA_negctrl_site1284] , which is 10.3

Kindly note the recorded gcPBM binding intensity (ln) for TTTGAGATGTGGTGTACACAAAATTAGGTACACATC [CACACA_site5773] , which is 12

Kindly note the recorded gcPBM binding intensity (ln) for ATGGACAAGTTAAACGCACACAAATATATACACCCA [CACACA_site8478] , which is 10.6
